System: Human immunodeficiency virus 1
Assay: Antiviral activity against HIV1 3B infected in human HOG.R5 cells after 4 days
Format: functional, organism-based
Conditions: Human immunodeficiency virus 1, 3B, HOG.R5, 96 h
Outcome Measure: IC50 (µM)

C=C(C)[C@@H]1CC[C@]2(C(=O)O)CC[C@]3(C)[C@H](CC[C@@H]4[C@@]5(C)CC[C@H](O)C(C)(C)[C@@H]5CC[C@]43C)[C@@H]12 [BETULINIC ACID] : 3.1

a: CCCc1cc(=O)oc2c3c(c4c(c12)OC(C)(C)C=C4)O[C@H](C)[C@@H](C)[C@@H]3O [CALANOLIDE A]
b: C[C@H]1[C@H](C)CC[C@]2(C(=O)O)CC[C@]3(C)C(=CC[C@@H]4[C@@]5(C)CC[C@H](O)C(C)(C)[C@@H]5CC[C@]43C)[C@H]12 [URSOLIC ACID]
c: C=C(C)[C@@H]1CC[C@]2(C(=O)O)CC[C@]3(C)[C@H](CC[C@@H]4[C@@]5(C)CC[C@H](OC(=O)/C=C\c6ccc(O)cc6)C(C)(C)[C@@H]5CC[C@]43C)[C@@H]12
[Q] List the 3 entries from lowest IC50 to highest IC50 value. Ranked list of labels, please, in the requested order.
[A] a, c, b

###

Assay: Selectivity index, ratio of CC50 for human HOG.R5 cells to IC50 for HIV1 3B
Format: functional
Outcome Measure: Ratio CC50/IC50
// no unit string in output, number only

Short answer for C=C(C)[C@@H]1CC[C@]2(C(=O)O)CC[C@]3(C)[C@H](CC[C@@H]4[C@@]5(C)CC[C@H](O)C(C)(C)[C@@H]5CC[C@]43C)[C@@H]12 [BETULINIC ACID] : Ratio CC50/IC50 was 5

Short answer for C=C(C)[C@@H]1CC[C@]2(C(=O)O)CC[C@]3(C)[C@H](CC[C@@H]4[C@@]5(C)CC[C@H](OC(=O)/C=C\c6ccc(O)c(OC)c6)C(C)(C)[C@@H]5CC[C@]43C)[C@@H]12 : Ratio CC50/IC50 was 2

Short answer for C=C(C)[C@@H]1CC[C@]2(C(=O)O)CC[C@]3(C)[C@H](CC[C@@H]4[C@@]5(C)CC[C@H](OC(=O)/C=C\c6ccc(O)cc6)C(C)(C)[C@@H]5CC[C@]43C)[C@@H]12 : Ratio CC50/IC50 was 2

Short answer for C=C(C)[C@@H]1CC[C@]2(C(=O)O)CC[C@]3(C)[C@H](CC[C@@H]4[C@@]5(C)CC[C@H](OC(=O)/C=C/c6ccc(O)c(OC)c6)C(C)(C)[C@@H]5CC[C@]43C)[C@@H]12 : Ratio CC50/IC50 was 3

Short answer for C[C@H]1[C@H](C)CC[C@]2(C(=O)O)CC[C@]3(C)C(=CC[C@@H]4[C@@]5(C)CC[C@H](O)C(C)(C)[C@@H]5CC[C@]43C)[C@H]12 [URSOLIC ACID] : Ratio CC50/IC50 was 1

Short answer for C=C(C)[C@@H]1CC[C@]2(C(=O)O)CC[C@]3(C)[C@H](CC[C@@H]4[C@@]5(C)CC[C@H](OC(=O)/C=C/c6ccc(O)cc6)C(C)(C)[C@@H]5CC[C@]43C)[C@@H]12 : Ratio CC50/IC50 was 3

###

Assay: Cytotoxicity against human CEM-SS cells after 6 days by MTS assay
Format: cell-based
Measured CC50 at 144 h accompanies every entry in the list below.

Use these answered entries as a reference point.
C=C(C)[C@@H]1CC[C@]2(C(=O)O)CC[C@]3(C)[C@H](CC[C@@H]4[C@@]5(C)CC[C@H](OC(=O)/C=C\c6ccc(O)c(OC)c6)C(C)(C)[C@@H]5CC[C@]43C)[C@@H]12 : < 1.6 µM
C=C(C)[C@@H]1CC[C@]2(C(=O)O)CC[C@]3(C)[C@H](CC[C@@H]4[C@@]5(C)CC[C@H](OC(=O)/C=C\c6ccc(O)cc6)C(C)(C)[C@@H]5CC[C@]43C)[C@@H]12 : < 1.7 µM
C=C(C)[C@@H]1CC[C@]2(C(=O)O)CC[C@]3(C)[C@H](CC[C@@H]4[C@@]5(C)CC[C@H](OC(=O)/C=C/c6ccc(O)c(OC)c6)C(C)(C)[C@@H]5CC[C@]43C)[C@@H]12 : < 1.6 µM
C[C@H]1[C@H](C)CC[C@]2(C(=O)O)CC[C@]3(C)C(=CC[C@@H]4[C@@]5(C)CC[C@H](O)C(C)(C)[C@@H]5CC[C@]43C)[C@H]12 : 21.9 µM
C=C(C)[C@@H]1CC[C@]2(C(=O)O)CC[C@]3(C)[C@H](CC[C@@H]4[C@@]5(C)CC[C@H](O)C(C)(C)[C@@H]5CC[C@]43C)[C@@H]12 : 5.9 µM

Now consider a different compound.
Short answer for C=C(C)[C@@H]1CC[C@]2(C(=O)O)CC[C@]3(C)[C@H](CC[C@@H]4[C@@]5(C)CC[C@H](OC(=O)/C=C/c6ccc(O)cc6)C(C)(C)[C@@H]5CC[C@]43C)[C@@H]12 : CC50 at 144 h was < 1.7 µM
